# assayed-system: S2R (Rattus norvegicus, UniProt Q5U3Y7)
# Construct: liver homogenates (250 μg/sample) from male Sprague Dawley rats; from tissue; host or cells: liver homogenate of male Sprague Dawley rats
# Sequence (Q5U3Y7 whole entry): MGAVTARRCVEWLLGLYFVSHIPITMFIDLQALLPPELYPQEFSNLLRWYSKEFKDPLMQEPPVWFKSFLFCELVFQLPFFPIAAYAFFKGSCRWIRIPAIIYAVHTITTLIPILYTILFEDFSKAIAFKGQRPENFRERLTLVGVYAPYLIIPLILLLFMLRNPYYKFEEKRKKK
# experiment-notes: S2R radioligand binding assay ([3H]-DTG with (+)-pentazocine mask, rat liver homogenates)
# details: [3H]-DTG 2 nM, (+)-pentazocine 5 μM mask, rat liver homogenates; mean ± SEM; read-out: Ki S2R
log10(Ki) values for the molecules below.
assay-metric: log10(Ki) (log10 of the value in nM)

[
  {
    "compound-smiles": "O=C(CCCN1CCN(c2ccc(F)cc2)CC1)c1ccc(F)cc1",
    "assayed-system": "S2R (Rattus norvegicus, UniProt Q5U3Y7)",
    "numeric-readout": 1.21
  },
  {
    "compound-smiles": "O=C(CCCN1CCN(C2CCCCC2)CC1)c1ccc(F)cc1",
    "assayed-system": "S2R (Rattus norvegicus, UniProt Q5U3Y7)",
    "numeric-readout": 1.12
  },
  {
    "compound-smiles": "Cc1ccc(CN(C)CCCC(=O)c2ccc(F)cc2)c(C)c1",
    "assayed-system": "S2R (Rattus norvegicus, UniProt Q5U3Y7)",
    "numeric-readout": 1.44
  },
  {
    "compound-smiles": "O=C(CCCN1CCCN(Cc2ccccc2)CC1)c1ccc(F)cc1",
    "assayed-system": "S2R (Rattus norvegicus, UniProt Q5U3Y7)",
    "numeric-readout": 2.32
  },
  {
    "compound-smiles": "COc1ccc(CC2CCN(CCCC(=O)c3ccc(F)cc3)CC2)cc1OC",
    "assayed-system": "S2R (Rattus norvegicus, UniProt Q5U3Y7)",
    "numeric-readout": 2.18
  },
  {
    "compound-smiles": "COc1cc2c(cc1OC)CN(CCCC(=O)c1ccc(F)cc1)CC2",
    "assayed-system": "S2R (Rattus norvegicus, UniProt Q5U3Y7)",
    "numeric-readout": 0.84
  },
  {
    "compound-smiles": "O=C(CCCN1CCC(c2ccncc2)CC1)c1ccc(F)cc1",
    "assayed-system": "S2R (Rattus norvegicus, UniProt Q5U3Y7)",
    "numeric-readout": 1.45
  },
  {
    "compound-smiles": "COc1ccc(CN(C)CCCC(=O)c2ccc(F)cc2)cc1OC",
    "assayed-system": "S2R (Rattus norvegicus, UniProt Q5U3Y7)",
    "numeric-readout": 2.17
  },
  {
    "compound-smiles": "O=C(CCCN1CCc2ccccc2C1)c1ccc(F)cc1",
    "assayed-system": "S2R (Rattus norvegicus, UniProt Q5U3Y7)",
    "numeric-readout": 2.09
  }
]

---

Measured melting point values are reported for all entries that follow.
assay-metric: melting point

[
  {
    "compound-smiles": "O=C(CCCN1CCN(c2ccc(F)cc2)CC1)c1ccc(F)cc1",
    "result": "94 to 95 °C"
  },
  {
    "compound-smiles": "O=C(CCCN1CCN(C2CCCCC2)CC1)c1ccc(F)cc1",
    "result": "198 to 200 °C"
  },
  {
    "compound-smiles": "O=C(CCCN1CCC(c2ccncc2)CC1)c1ccc(F)cc1",
    "result": "102 to 104 °C"
  },
  {
    "compound-smiles": "O=C(CCCN1CCC2(CC1)OCc1ccccc12)c1ccc(F)cc1",
    "result": "88 to 90 °C"
  },
  {
    "compound-smiles": "O=C(CCCN1CCc2ccccc2C1)c1ccc(F)cc1",
    "result": "45 to 47 °C"
  }
]
